# Measurement Notes: Dissolution test, paddle method (Example 15)
# Format: physicochemical
# Condition Label: different time points, FIGS. 3 to 6; pH 6.8, 1.5% Tween 80, 37° C.
Parameter: Change of dissolution rate of micronized particles compared to before micronization

CC1OC2=C(C(=O)C(=O)c3c2ccc2c3CCCC2)C1(C)C (stereo not shown) [Compound 44]
increased significantly
CC1CC2=C(O1)c1ccccc1C(=O)C2=O (stereo not shown) [Compound 5]
increased significantly
CC1(C)CCC2=C(O1)c1ccccc1C(=O)C2=O [Compound 1]
increased significantly
Cc1cc2c(c3ccccc13)C(=O)C(=O)C1=C2OC(C)C1(C)C (stereo not shown) [Compound 51]
increased significantly

Data provenance: patent US20100209513A1
